Hey, just so you know, these numbers are from patent US10065941B2.

# measurement target: human P2X3 receptor (Homo sapiens (Human), UniProt P56373)
# Sequence (P56373 whole entry): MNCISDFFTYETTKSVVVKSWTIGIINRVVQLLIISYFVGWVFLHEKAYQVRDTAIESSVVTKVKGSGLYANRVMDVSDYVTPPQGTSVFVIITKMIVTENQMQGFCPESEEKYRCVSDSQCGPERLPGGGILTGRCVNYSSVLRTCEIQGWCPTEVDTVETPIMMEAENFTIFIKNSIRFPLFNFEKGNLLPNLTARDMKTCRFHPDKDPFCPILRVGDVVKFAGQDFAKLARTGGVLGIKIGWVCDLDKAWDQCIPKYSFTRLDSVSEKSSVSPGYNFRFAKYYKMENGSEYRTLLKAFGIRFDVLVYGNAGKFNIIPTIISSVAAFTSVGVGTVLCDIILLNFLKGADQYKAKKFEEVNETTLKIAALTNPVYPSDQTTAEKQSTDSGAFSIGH
# assay: Evaluation of human P2X3 receptor inhibitory activity (Test Example 1)
# experimental setup: C6BU-1 cell transfected with human P2X3 receptor gene, FLIPR 384
# Source text: […]
recorded endpoint: IC50

>>> recorded_value("COC(=O)[C@@H](C)Cn1c(=O)[nH]/c(=N\\c2ccc(Oc3ccc(CO)nc3)cc2)n(Cc2ccc(Cl)cc2)c1=O")
"5 nM"
>>> recorded_value("C[C@@H](C(=O)O)[C@H](C)n1c(=O)[nH]/c(=N\\c2ccc(Oc3ccc(F)cn3)c(F)c2)n(Cc2ccc(Cl)cc2)c1=O")
"5 nM"
>>> recorded_value("C[C@@H](Cn1c(=O)[nH]/c(=N\\c2ccc(Oc3ccccn3)cc2)n(C[C@H]2CC[C@H](C)CC2)c1=O)C(=O)O")
"6 nM"
>>> recorded_value("COC(=O)[C@H](C)[C@H](C)n1c(=O)[nH]/c(=N\\c2ccc(Oc3ccc(F)cn3)cc2)n(Cc2ccc(C)cc2)c1=O")
"7 nM"
>>> recorded_value("C[C@@H](Cn1c(=O)[nH]/c(=N\\c2ccc(Oc3cnc(C#N)nc3)cc2)n(Cc2ccc(Cl)cc2)c1=O)C(=O)O")
"6 nM"
>>> recorded_value("COC(=O)[C@@H](C)Cn1c(=O)[nH]/c(=N\\c2ccc(Oc3ccc(C(F)(F)F)nn3)cc2)n(Cc2ccc(Cl)cc2)c1=O")
"7 nM"

* * *

# maps each entry to its pIC50
# measurement target: human P2X3 receptor (Homo sapiens (Human))
# assay: Evaluation of human P2X3 receptor inhibitory activity (Test Example 1)
# experimental setup: C6BU-1 cell transfected with human P2X3 receptor gene, FLIPR 384
pIC50: −log10 of the molar value.
recorded endpoint: pIC50

>>> recorded_value("Cc1ccc(Oc2ccc(/N=c3\\[nH]c(=O)n(C[C@H](C)C(=O)O)c(=O)n3Cc3ccc(Cl)cc3)cc2F)nn1")
8.15
>>> recorded_value("COC(=O)C(C)(C)Cn1c(=O)[nH]/c(=N\\c2ccc(Oc3ccnc(C#N)c3)cc2)n(Cc2ccc(Cl)cc2)c1=O")
8.22
>>> recorded_value("O=c1[nH]/c(=N\\c2ccc(Oc3ccccn3)cc2)n(Cc2ccc(Cl)cc2)c(=O)n1C[C@@H](O)CO")
8.05
>>> recorded_value("C[C@@H](Cn1c(=O)[nH]/c(=N\\c2ccc(Oc3cccc(CO)n3)cc2)n(Cc2ccc(Cl)cc2)c1=O)C(=O)O")
7.80
>>> recorded_value("COC(=O)[C@@H](C)Cn1c(=O)[nH]/c(=N\\c2ccc(Oc3cnccn3)cc2)n(Cc2ccc(Cl)cc2)c1=O")
8.22
>>> recorded_value("Cc1nccc(Oc2ccc(/N=c3\\[nH]c(=O)n(C[C@H](C)C(=O)O)c(=O)n3Cc3ccc(Cl)cc3)cc2)n1")
8.00
>>> recorded_value("COC(=O)[C@@H](C)Cn1c(=O)[nH]/c(=N\\c2ccc(Oc3cnccn3)c(F)c2)n(Cc2ccc(Cl)cc2)c1=O")
8.22
>>> recorded_value("CCOC(=O)[C@H]1C[C@@H](n2c(=O)[nH]/c(=N\\c3ccc(Oc4ncccc4F)cc3)n(Cc3ccc(Cl)cc3)c2=O)C1")
7.51
>>> recorded_value("COC(=O)C(C)(C)Cn1c(=O)[nH]/c(=N\\c2ccc(Oc3ccccn3)c(C)c2)n(Cc2ccc(Cl)cc2)c1=O")
7.85
>>> recorded_value("COC(=O)[C@@H](C)Cn1c(=O)[nH]/c(=N\\c2ccc(Oc3cnc(Cl)cn3)cc2)n(Cc2ccc(Cl)cc2)c1=O")
8.22
>>> recorded_value("CCOC(=O)[C@H]1C[C@@H](n2c(=O)[nH]/c(=N\\c3ccc(Oc4ccccn4)cc3)n(Cc3ccc(Cl)cc3)c2=O)C1")
8.05
>>> recorded_value("COC(=O)C(C)(C)Cn1c(=O)[nH]/c(=N\\c2ccc(Oc3ccnc(C(=O)O)c3)cc2)n(Cc2ccc(Cl)cc2)c1=O")
8.15
>>> recorded_value("COC(=O)[C@H](C)[C@H](C)n1c(=O)[nH]/c(=N\\c2ccc(Oc3cncc(F)c3)c(C)c2)n(Cc2ccc(Cl)cc2)c1=O")
7.59

* * *

# measurement target: UniProt:P56373
# assay: Evaluation of human P2X3 receptor inhibitory activity (Test Example 1)
# experimental setup: C6BU-1 cell transfected with human P2X3 receptor gene, FLIPR 384
# Excerpt: […]
pIC50: −log10 of the molar value.
recorded endpoint: pIC50

>>> recorded_value("CC(O)c1ccc(Oc2ccc(/N=c3\\[nH]c(=O)n(CCC(=O)O)c(=O)n3Cc3ccc(Cl)cc3)cc2)nc1 (stereo not drawn) [Compound R-306]")
7.85
>>> recorded_value("CCOC(=O)[C@H]1C[C@H](n2c(=O)[nH]/c(=N\\c3ccc(Oc4ccccn4)cc3)n(Cc3ccc(Cl)cc3)c2=O)C1 [Compound I-170]")
7.82
>>> recorded_value("Cc1nsc(Oc2ccc(/N=c3\\[nH]c(=O)n(C[C@H](C)C(=O)O)c(=O)n3Cc3ccc(Cl)cc3)cc2)n1 [Compound R-160]")
8.10

* * *

Below is a list of entries, each paired with its recorded IC50 value.
# measurement target: human P2X3 receptor (Homo sapiens (Human))
# assay: Evaluation of human P2X3 receptor inhibitory activity (Test Example 1)
# experimental setup: C6BU-1 cell transfected with human P2X3 receptor gene, FLIPR 384
recorded endpoint: IC50 (nM)

>>> recorded_value("COC(=O)[C@@H](C)Cn1c(=O)[nH]/c(=N\\c2ccc(Oc3ccc(F)cn3)cc2)n(Cc2ccc(Cl)s2)c1=O")
8
>>> recorded_value("COC(=O)[C@@H](C)Cn1c(=O)[nH]/c(=N\\c2ccc(Oc3cccc(CO)n3)cc2)n(Cc2ccc(Cl)cc2)c1=O")
14
>>> recorded_value("C[C@@H](Cn1c(=O)[nH]/c(=N\\c2ccc(Oc3ccc(F)cn3)cc2)n(Cc2ccc(F)cc2F)c1=O)C(=O)O")
20
>>> recorded_value("O=C(O)CCn1c(=O)[nH]/c(=N\\c2ccc(Oc3ccc(Cl)cn3)cc2)n(Cc2ccc(Cl)cc2)c1=O")
5
>>> recorded_value("Cc1cncc(Oc2ccc(/N=c3\\[nH]c(=O)n(CC(C)(C)C(=O)O)c(=O)n3Cc3ccc(Cl)cc3)cc2)c1")
13
>>> recorded_value("COc1cccnc1Oc1ccc(/N=c2\\[nH]c(=O)n(CC(C)(C)C(=O)O)c(=O)n2Cc2ccc(Cl)cc2)cc1")
29
>>> recorded_value("COc1ccc(Oc2ccc(/N=c3\\[nH]c(=O)n(C[C@H](C)C(=O)O)c(=O)n3Cc3ccc(Cl)cc3)cc2)nc1")
5

* * *

# measurement target: UniProt:P56373
# assay: Evaluation of human P2X3 receptor inhibitory activity (Test Example 1)
# experimental setup: C6BU-1 cell transfected with human P2X3 receptor gene, FLIPR 384
Field 'label' (enum: true (1) / false (0)). Set to true (1) when IC50 is strictly under 0.03 µM; else false (0).

>>> label_value("CCn1c(=O)nc(Nc2ccc3nc(C(C)C)oc3c2)n(Cc2ccc(Cl)cc2)c1=O")
"false (0)"
>>> label_value("C[C@@H](Cn1c(=O)[nH]/c(=N\\c2ccc(Oc3cccnn3)cc2)n(Cc2ccc(Cl)cc2)c1=O)C(=O)O")
"true (1)"
>>> label_value("CCn1c(=O)[nH]/c(=N\\c2ccc(Oc3cc(Cl)c(C(=O)O)cn3)cc2)n(Cc2ccc(Cl)cc2)c1=O")
"true (1)"
>>> label_value("O=c1[nH]/c(=N\\c2ccc(Oc3ccccn3)cc2)n(Cc2ccc(Cl)cc2)c(=O)n1CCO")
"true (1)"
>>> label_value("COC(=O)CCn1c(=O)[nH]/c(=N\\c2ccc(-n3ccccc3=O)cc2)n(Cc2ccc(Cl)cc2)c1=O")
"false (0)"
>>> label_value("CC(C)(C)n1c(=O)[nH]/c(=N\\c2ccc(Oc3cccc(C(N)=O)n3)cc2)n(Cc2ccc(Cl)cc2)c1=O")
"false (0)"
>>> label_value("O=C(O)C1(Cn2c(=O)[nH]/c(=N\\c3ccc(Oc4ccc(F)cn4)cc3)n(Cc3ccc(Cl)cc3)c2=O)CC1")
"true (1)"
>>> label_value("NC(=O)Cn1c(=O)[nH]/c(=N\\c2ccc(Oc3ccccn3)cc2)n(Cc2ccc(Cl)cc2)c1=O")
"true (1)"
>>> label_value("COC(=O)C(C)(C)Cn1c(=O)[nH]/c(=N\\c2ccc(Oc3cccnn3)cc2)n(Cc2ccc(Cl)cc2)c1=O")
"true (1)"
>>> label_value("COC(=O)[C@@H](C)Cn1c(=O)[nH]/c(=N\\c2ccc(O[C@H](C)C(F)(F)F)c(F)c2)n(Cc2ccc(Cl)cc2)c1=O")
"false (0)"
>>> label_value("CCc1ccc(Oc2ccc(/N=c3\\[nH]c(=O)n(C[C@H](C)C(=O)O)c(=O)n3Cc3ccc(Cl)cc3)cc2)nc1")
"true (1)"
>>> label_value("C[C@@H](Cn1c(=O)[nH]/c(=N\\c2ccc(Oc3cc(CO)ccn3)cc2)n(Cc2ccc(Cl)cc2)c1=O)C(=O)O")
"true (1)"
>>> label_value("CC(C)(Cn1c(=O)[nH]/c(=N\\c2ccc(Oc3cccnn3)cc2)n(Cc2ccc(Cl)cc2)c1=O)C(=O)O")
"true (1)"
>>> label_value("O=c1[nH]/c(=N\\c2ccc(Oc3ccccn3)cc2)n(Cc2ccc(Cl)cc2)c(=O)n1C[C@H](O)CO")
"true (1)"
>>> label_value("CCc1[nH]c2ccc(/N=c3\\[nH]c(=O)n(C[C@H](C)C(=O)O)c(=O)n3Cc3ccc(Cl)cc3)cc2c1C")
"true (1)"
>>> label_value("COC(=O)C(C)(C)Cn1c(=O)[nH]/c(=N\\c2ccc(Oc3nc(C)ns3)cc2)n(Cc2ccc(Cl)cc2)c1=O")
"true (1)"
>>> label_value("COC(=O)[C@@H](C)Cn1c(=O)[nH]/c(=N\\c2ccc(Oc3ccccn3)cc2)n(Cc2ccc(Cl)s2)c1=O")
"true (1)"
>>> label_value("COC(=O)CCn1c(=O)[nH]/c(=N\\c2ccc(Oc3ccc(Cl)cn3)cc2)n(Cc2ccc(C)cc2)c1=O")
"true (1)"
>>> label_value("C[C@@H](Cn1c(=O)[nH]/c(=N\\c2ccc(Oc3ccc(CO)cn3)cc2)n(Cc2ccc(Cl)cc2)c1=O)C(=O)O")
"true (1)"
>>> label_value("N#Cc1ccc(Oc2ccc(/N=c3\\[nH]c(=O)n(CC(=O)O)c(=O)n3Cc3ccc(Cl)cc3)cc2)nc1")
"false (0)"
>>> label_value("Cc1cc(/N=c2\\[nH]c(=O)n(CCC(=O)O)c(=O)n2Cc2ccc(Cl)cc2)ccc1Oc1ccccn1")
"true (1)"
>>> label_value("CC(C)(Cn1c(=O)[nH]/c(=N\\c2ccc(OC3CCC3)c(F)c2)n(Cc2ccc(Cl)cc2)c1=O)C(=O)O")
"true (1)"
>>> label_value("Cc1cc(/N=c2\\[nH]c(=O)n(C[C@H](C)C(=O)O)c(=O)n2Cc2ccc(Cl)cc2)ccc1Oc1cncc(F)c1")
"true (1)"
>>> label_value("COC(=O)[C@@H](C)Cn1c(=O)[nH]/c(=N\\c2ccc(Oc3ncccc3OC(F)F)cc2)n(Cc2ccc(Cl)cc2)c1=O")
"false (0)"
>>> label_value("Cc1ccc(Cn2c(=O)n(C[C@H](C)C(=O)O)c(=O)[nH]/c2=N\\c2ccc(Oc3ccc(C)cn3)cc2)cc1")
"true (1)"
>>> label_value("C[C@@H](Oc1ccc(/N=c2\\[nH]c(=O)n(CC(C)(C)C(=O)O)c(=O)n2Cc2ccc(Cl)cc2)cc1O[C@H](C)C(F)(F)F)C(F)(F)F")
"false (0)"
>>> label_value("C[C@@H](Cn1c(=O)[nH]/c(=N\\c2ccc(Oc3ccc(CO)nc3)cc2)n(Cc2ccc(Cl)cc2)c1=O)C(=O)O")
"true (1)"
